# Test system: Aβ40 in conditioned medium of cells stably expressing Amyloid Precursor Protein (APP)
# Assay Details: In vitro BACE-1 cell-based assay (Aβ40 sandwich ELISA)
# Measurement Parameters: BACE1 cell-based assay; read-out: IC50 IP (μM) BACE1 cell
Each item that follows carries a reported IC50.
The response must be a number in µM with no trailing unit.

Take a look at these entries with their results.
structure=COC[C@]12C[C@H]1[C@@](CF)(c1cc(NC(=O)c3ccc(Cl)cn3)cc(F)c1F)N=C(N)S2 value_measured=0.00995
structure=NC1=N[C@](CF)(c2cc(NC(=O)c3ccc(Cl)cn3)ccc2F)[C@@H]2C[C@@H]2S1 value_measured=0.00871

// query Report IC50 for "COC[C@]12C[C@H]1[C@@](C)(c1cc(Nc3ncnc4cc(C#N)cnc34)cc(F)c1F)N=C(N)S2" please.
// result 0.00352

// query IC50 lookup needed for "Cc1nc(OCC(F)(F)F)cnc1C(=O)Nc1ccc(F)c([C@@]2(CF)N=C(N)S[C@@]3(CO)C[C@H]32)c1" , thanks.
// result 0.0284
